B1: HDV Ribozyme (parent)
chain: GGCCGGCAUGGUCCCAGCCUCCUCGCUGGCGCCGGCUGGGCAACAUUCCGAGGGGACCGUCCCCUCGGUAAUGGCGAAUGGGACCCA

- Variants of: B1
- TEST: self-cleavage, relative activity (ratio to wild type); higher = more cleavage; co-transcriptional
QUANTITY: self-cleavage
Give bare numbers.

MUTATION CODE | QUANTITY | EXPERIMENTAL VALUE
U27A U65G | self-cleavage | 1.12
C26G A45C | self-cleavage | 0.364
A78G C85U | self-cleavage | 0.748

Please give self-cleavage for each item listed below.
1. G11C C61U
2. C41U U47G
3. C22G U65C
4. A70C G80C
5. A45U C63G
6. G6A A87U

Output line:
1. 0.157
2. 0.95
3. 0.0997
4. 0.135
5. 0.63
6. 0.602

Input line: I would be grateful if you could share the reported self-cleavage for C44G G54A .
Output line: 0.831

// data source = the RNAGym collection of RNA variant scans (doi:10.7554/elife.80360)
